Just for reference, patent US5183899A is where these values come from.

Item-by-item account of inhibition at 10 µM
Target: angiotensin II receptor (Bos taurus)
Construct: An A II receptor membrane fraction was prepared from bovine adrenal cortex; from tissue; host or cells: bovine adrenal cortex, receptor membrane fraction
Sequence (P25104 1-359): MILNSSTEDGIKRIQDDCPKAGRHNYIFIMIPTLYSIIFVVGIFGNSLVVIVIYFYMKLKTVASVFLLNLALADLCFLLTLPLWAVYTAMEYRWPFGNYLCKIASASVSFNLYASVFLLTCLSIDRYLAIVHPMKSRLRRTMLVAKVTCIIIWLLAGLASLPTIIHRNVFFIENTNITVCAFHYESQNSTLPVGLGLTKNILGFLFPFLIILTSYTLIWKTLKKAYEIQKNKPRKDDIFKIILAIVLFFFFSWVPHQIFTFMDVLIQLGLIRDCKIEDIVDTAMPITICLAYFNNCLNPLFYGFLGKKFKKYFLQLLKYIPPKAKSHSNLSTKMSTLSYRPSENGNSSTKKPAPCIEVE
Experiment: Inhibition of binding of angiotensin II to angiotensin receptors (125I-angiotensin II binding, receptor membrane fraction from bovine adrenal cortex)
Conditions: 1 × 10^-5 (M), 125I-A II, room temperature, 1 hour
Experimental: Inhibition of binding of angiotensin II to angiotensin receptors […] the compound of the present invention (10^-6 -10^-5 M) and ^125 I-angiotensin II (^125 I-A II) (1.85 kBq/50 μl) were added to the receptor membrane fraction and incubated at room temperature for 1 hour. Bound and free ^125 I-A II's were separated through a filter (Whatman GF/B filter), and the radioactivity of ^125 I-A II bound to the receptor was measured.
measurement type: inhibition at 10 µM (%)

INSERT INTO measurements (test_smiles, experimental_result) VALUES
  ('CCCCc1cc(C(=O)NOCc2ccccc2)nn1Cc1ccc(-c2ccccc2-c2nn[nH]n2)cc1', 96),
  ('CCCCc1cc(C(=O)OC(C)C)nn1Cc1ccc(-c2ccccc2-c2nn[nH]n2)cc1', 98),
  ('CCCCc1cc(C(=O)OCC)nn1Cc1ccc(-c2ccccc2-c2nn[nH]n2)cc1', 92),
  ('CCCCc1cc(C(=O)NC(C)(C)C)nn1Cc1ccc(-c2ccccc2-c2nn[nH]n2)cc1', 94),
  ('CCCc1cc(C(=O)OCC)nn1Cc1ccc(-c2ccccc2-c2nn[nH]n2)cc1', 90),
  ('CCCCc1cc(C(=O)NCCOC)nn1Cc1ccc(-c2ccccc2-c2nn[nH]n2)cc1', 95),
  ('CCCCc1cc(C(=O)NC2CCCCC2)nn1Cc1ccc(-c2ccccc2-c2nn[nH]n2)cc1', 98);
